The reported measurements were obtained from paper PMC13237026.

tested-on: mP2X1 receptor (Mus musculus, UniProt P51576, R139A)
Sequence (P51576 whole entry R139A): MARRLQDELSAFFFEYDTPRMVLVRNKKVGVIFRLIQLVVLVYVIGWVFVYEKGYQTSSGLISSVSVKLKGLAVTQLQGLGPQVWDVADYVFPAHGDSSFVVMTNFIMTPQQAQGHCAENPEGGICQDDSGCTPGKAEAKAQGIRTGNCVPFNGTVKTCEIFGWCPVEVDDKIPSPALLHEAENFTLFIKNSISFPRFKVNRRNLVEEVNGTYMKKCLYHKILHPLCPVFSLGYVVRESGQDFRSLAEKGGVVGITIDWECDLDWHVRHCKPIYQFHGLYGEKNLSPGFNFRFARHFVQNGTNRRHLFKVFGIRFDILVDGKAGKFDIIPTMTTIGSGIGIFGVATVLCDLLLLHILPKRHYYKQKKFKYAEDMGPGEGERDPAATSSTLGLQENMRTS
procedure-text: cell-based
pEC50: −log10 of the molar value.

compound: Nc1ncnc2c1ncn2[C@@H]1O[C@H](COP(=O)(O)OP(=O)(O)OP(=O)(O)O)[C@@H](O)[C@H]1O [ATP]
pEC50: 5.28

* * *

tested-on: mP2X1 receptor (Mus musculus, UniProt P51576)
Sequence (P51576 whole entry): as the sequence (P51576 whole entry R139A) above, with A139R counted along it
procedure-text: cell-based
assay-readout: EC50

smiles-representation: Nc1ncnc2c1ncn2[C@@H]1O[C@H](COP(=O)(O)OP(=O)(O)OP(=O)(O)O)[C@@H](O)[C@H]1O
experimental-result: 829 nM

* * *

tested-on: mP2X1 receptor (Mus musculus, UniProt P51576, K190A)
Sequence (P51576 whole entry K190A): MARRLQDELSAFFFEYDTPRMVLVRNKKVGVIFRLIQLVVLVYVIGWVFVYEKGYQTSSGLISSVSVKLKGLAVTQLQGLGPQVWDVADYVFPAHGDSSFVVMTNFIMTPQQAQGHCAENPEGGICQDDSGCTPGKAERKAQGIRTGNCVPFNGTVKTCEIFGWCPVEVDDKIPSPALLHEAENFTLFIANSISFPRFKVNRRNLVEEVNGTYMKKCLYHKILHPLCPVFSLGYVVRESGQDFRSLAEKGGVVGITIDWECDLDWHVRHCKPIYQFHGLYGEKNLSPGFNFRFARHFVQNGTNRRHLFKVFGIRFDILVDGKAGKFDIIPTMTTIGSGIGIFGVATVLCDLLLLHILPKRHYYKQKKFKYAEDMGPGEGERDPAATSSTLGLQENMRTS
procedure-text: cell-based
pEC50: −log10 of the molar value.

smiles-representation: Nc1ncnc2c1ncn2[C@@H]1O[C@H](COP(=O)(O)OP(=O)(O)OP(=O)(O)O)[C@@H](O)[C@H]1O
pEC50: 5.17
